# key: entry, value: cytotoxicity at 10 µM
# measurementNotes: Toxicity liver stage against HepG2, at 10uM
# Format: cell-based
# Parameters: test concentration 10 uM, cell line HepG2-A16-CD81EGFP
# runParameters: human, HepG2-A16-CD81EGFP cells; read-out: INHIBITION
// return numeric value only (unit: %, not printed)

compound	observedResult
Cc1noc(C)c1CNC(C)c1ccc(S(=O)(=O)N(C)C)cc1 (configuration not stated)	2.47
COc1ccc2nc(CNC(=O)c3cc(C(C)C)no3)[nH]c2c1	-0.527
Cc1ccccc1CS(=O)(=O)c1nnc(C(C)NC(=O)OC(C)(C)C)o1 (configuration not stated)	-1

Can you look up the measured cytotoxicity at 10 µM of CC(CNC1CCN(c2ccccn2)CC1)Oc1ccc(F)cc1 (configuration not stated) for me?
7.43

Can you look up the measured cytotoxicity at 10 µM of COc1ccc(CC2CN(C(=O)c3ocnc3C)CCO2)cc1 (configuration not stated) for me?
11.4

Can you look up the measured cytotoxicity at 10 µM of CN(C)C(=O)CC1CC2(CCN(Cc3ccoc3)CC2)c2ccccc21 (configuration not stated) for me?
-10.1

Can you look up the measured cytotoxicity at 10 µM of O=C(c1ccnn1COc1ccc(Cl)cc1)N1CCOCC1 for me?
-3.94

Can you look up the measured cytotoxicity at 10 µM of CN(Cc1ccccc1)C(=O)[C@@H]1Cc2[nH]cnc2CN1C for me?
-3.92

Can you look up the measured cytotoxicity at 10 µM of CCN1CCOCC12CCN(C(=O)Cc1ccccc1)CC2 for me?
-75.3

Can you look up the measured cytotoxicity at 10 µM of CNC(=O)C1(N2CCC[C@H]2C(=O)NC2CC2)CCCCC1 for me?
-1.69

Can you look up the measured cytotoxicity at 10 µM of CC(CNC(=O)N1CCN(Cc2ccon2)CC1)Cc1cccs1 (configuration not stated) for me?
-1.26

###

# measurementNotes: Toxicity liver stage against HepG2, at 10uM
# Type: cell-based
# Design: test concentration 10 uM, cell line HepG2-A16-CD81EGFP
# runParameters: human, HepG2-A16-CD81EGFP cells; read-out: INHIBITION
assayReadout: cytotoxicity at 10 µM (%)
// return numeric value only (unit: %, not printed)

// solved cases for cytotoxicity at 10 µM follow
compound	unitsLabel	cytotoxicity at 10 µM
CN1CCOC(CNCc2nc(-c3ccccc3)cs2)C1 (stereo not drawn)	%	-11.5
CCCOc1cc(CNC(=O)Nc2cccc(C(C)=O)c2)ccn1	%	-1
CC(C)C(=O)N1CCC(C2C(=O)Nc3ccccc32)CC1 (stereo not drawn)	%	-1.54

Can you look up the measured cytotoxicity at 10 µM of CN(Cc1cccnc1)[C@@H]1CN(C(=O)c2ccoc2)[C@@H]2CCCO[C@H]12 for me?
-1.81

Can you look up the measured cytotoxicity at 10 µM of Cc1cc(C)n(CC(=O)N2CCC(c3nc(C)no3)CC2)n1 for me?
1.2

Can you look up the measured cytotoxicity at 10 µM of Cn1nc(CN2CCCN(C3CCCC3)CC2)c2c(Cl)cccc21 for me?
11

###

# measurementNotes: Toxicity liver stage against HepG2, at 10uM
# Format: cell-based
# Design: test concentration 10 uM, cell line HepG2-A16-CD81EGFP
# runParameters: human, HepG2-A16-CD81EGFP cells; read-out: INHIBITION
assayReadout: cytotoxicity at 10 µM (%)
// return numeric value only (unit: %, not printed)

Can you look up the measured cytotoxicity at 10 µM of O=C(C1CCCO1)N1CCCn2c(nnc2Cn2ccnc2)C1 (stereo not given) for me?
15.7

Can you look up the measured cytotoxicity at 10 µM of CC(=O)N1CCCC(c2ccc(N3CCOCC3)cn2)C1 (stereo not given) for me?
-18.9

Can you look up the measured cytotoxicity at 10 µM of CCC1c2ccsc2CCN1Cc1cc2c(cc1OC)OCCO2 (stereo not given) for me?
29.4

Can you look up the measured cytotoxicity at 10 µM of c1ccc(CN2CCCn3nnc(Cn4cccc4)c3C2)nc1 for me?
8.37

Can you look up the measured cytotoxicity at 10 µM of O=C1CO[C@H]2CCN(C(=O)c3ccc4c(c3)CCCC4)CC[C@@H]2N1 for me?
0.905

Can you look up the measured cytotoxicity at 10 µM of CC1CN(C(=O)c2ccn(C)c(=O)c2)c2ccccc2NC1=O (stereo not given) for me?
2.94

Can you look up the measured cytotoxicity at 10 µM of CCOc1cccc(C(=O)NCCC(=O)Nc2ccncc2)c1 for me?
2.37

Can you look up the measured cytotoxicity at 10 µM of COc1ncc(NCc2ccc(Cl)c(Cl)c2)cc1C(N)=O for me?
32.7

Can you look up the measured cytotoxicity at 10 µM of Cc1nnc(CN2CCCC2c2ccc3c(c2)OCCO3)n1C (stereo not given) for me?
-0.379

Can you look up the measured cytotoxicity at 10 µM of O=C1CC2(CCN(Cc3ccc(-c4ccccc4)s3)C2)C(=O)N1 (stereo not given) for me?
-0.745

Can you look up the measured cytotoxicity at 10 µM of O=C(CNc1cc(F)ccc1OC(F)F)NCC(F)(F)F for me?
-2.79
